# TESTED_SYSTEM: T1, human GLP-1 receptor (human, UniProt P43220 24-463)
# T1 construct: whole, on cells; also called hGLP-1
# ASSAY_OVERVIEW: SPA displacement of [125I]-GLP-1(7-36)NH2 from BHK membranes with human GLP-1 receptor, low HSA (0.001%)
Numbered stars: 1 amine (or outer) side, 2 acyl side, 3 side chain; on linkers, the order of the positions; unused ones are H or OH. Square brackets hold non-standard residues; d marks the D form. Side chains are listed from the residue outwards. Ends that are not written are not given here. * marks the point of attachment. Undecanoyl(11-OPh(4-COOH)) = O=C(O)c1ccc(OCCCCCCCCCCC(=O)*)cc1; γGlu = O=C(O)[C@H](CCC(=O)[*:2])N[*:1]; εLys = N[C@@H](CCCCN[*:1])C(=O)[*:2]; AEEA = NCCOCCOCC(=O)O; Aib = CC(C)(N)C(=O)O
REPORTED_ENDPOINT: IC50 (pM)
Numbers only; they are read as pM.

Study these solved cases before continuing.
>  <BINDER>
HXEGTFTSDVSSYLEGQAAKEFIAWLVQGRK (Aib at 8; Lys 26 and Lys 37 each acylated at the epsilon-amino group with the side chain given in the name (numbering of GLP-1(7-37), His = 7))

>  <IC50, pM>
640

$$$$
>  <BINDER>
H[Aib]EGTFTSDVSSYLEEQAAK([εLys-γGlu-γGlu-Undecanoyl(11-OPh(4-COOH))])EFIEWLVRGRK([εLys-γGlu-γGlu-Undecanoyl(11-OPh(4-COOH))])

>  <IC50, pM>
30

$$$$
>  <BINDER>
H[Aib]EGTFTSDVSSYLEEQAAK([εLys-γGlu-γGlu-Undecanoyl(11-OPh(4-COOH))])EFIEWLVRGRK([εLys-γGlu-γGlu-Undecanoyl(11-OPh(4-COOH))])E (X stands for Aib)

>  <IC50, pM>
20

$$$$

Report IC50, nothing else, for this binder: H[Aib]EGTFTSDVSSYLEEQAAK([εLys-AEEA-AEEA-γGlu-Undecanoyl(11-OPh(4-COOH))])EFIAWLVRGRK([εLys-AEEA-AEEA-γGlu-Undecanoyl(11-OPh(4-COOH))])
260

Return reported IC50. Input binder: HXEGTFTSDVSSYLEGQAAKEFIAWLVHGRK (Aib at 8; Lys 26 and Lys 37 each acylated at the epsilon-amino group with the side chain given in the name (numbering of GLP-1(7-37), His = 7))
930

Please list IC50 recorded for the binder HXEGTFTSDVSSYLEGQAAKEFIAWLVRGRK (Aib at 8; 26K and 37K acylated: protracting moiety C14 diacid, linker gGlu-2xOEG (numbering of GLP-1(7-37), His = 7), X stands for Aib) [Comparative compound (WO2011/080103) Example 4]
6020

Please look at this binder and report its IC50: HXEGTFTSDVSSYLEGQAAKEFIAHLVQGRK (Aib at 8; Lys 26 and Lys 37 each acylated at the epsilon-amino group with the side chain given in the name (numbering of GLP-1(7-37), His = 7))
1570
